target: SHV-1 (Klebsiella pneumoniae); conditions: read-out: IC50 β-lactamase SHV-1; class (A); nitrocefin 200 μM, 30-min pre-incubation, enzyme 0.075 nM
Sequence (P0AD64 22-286): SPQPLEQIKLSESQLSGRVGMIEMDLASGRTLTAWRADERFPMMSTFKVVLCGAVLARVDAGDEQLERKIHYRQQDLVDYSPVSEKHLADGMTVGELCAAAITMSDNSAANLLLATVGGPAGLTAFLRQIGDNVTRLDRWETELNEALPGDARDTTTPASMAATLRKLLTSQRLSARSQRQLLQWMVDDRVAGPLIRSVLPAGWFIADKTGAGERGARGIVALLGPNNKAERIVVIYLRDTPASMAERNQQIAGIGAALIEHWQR
reported.property: log10(IC50) (log10 of the value in nM)

compound: Cc1cc(C(N)=O)nn1C1=CC2CN(C1)C(=O)N2OS(=O)(=O)[O-].[Na+] (centres unmarked)
log10(IC50): -0.44

compound: O=C([O-])CCc1cn(C2=CC3CN(C2)C(=O)N3OS(=O)(=O)[O-])nn1.[Na+].[Na+] (centres unmarked)
log10(IC50): 0.45

compound: CC(=O)Nc1cnn(C2=CC3CN(C2)C(=O)N3OS(=O)(=O)[O-])c1.[Na+] (centres unmarked)
log10(IC50): 1.38

compound: N#Cc1ccn(C2=CC3CN(C2)C(=O)N3OS(=O)(=O)[O-])n1.[Na+] (centres unmarked)
log10(IC50): 0.00

compound: O=C([O-])Cc1cn(C2=CC3CN(C2)C(=O)N3OS(=O)(=O)[O-])nn1.[Na+].[Na+] (centres unmarked)
log10(IC50): 0.79

compound: NCc1ccn(C2=CC3CN(C2)C(=O)N3OS(=O)(=O)[O-])n1.O=C(O)C(F)(F)F.[Na+] (centres unmarked)
log10(IC50): 0.93

compound: NCc1cn(C2=CC3CN(C2)C(=O)N3OS(=O)(=O)[O-])nn1.O=C(O)C(F)(F)F.[Na+] (centres unmarked)
log10(IC50): 0.41

compound: O=C1N2CC(n3cc(-c4nccs4)nn3)=CC(C2)N1OS(=O)(=O)[O-].[Na+] (centres unmarked)
log10(IC50): -0.21

Every entry's value here was drawn from patent US10722520B2.
